Cited source: patent US10908153B2

Record form. Attribute: inhibition at 50 µM. Fill in for each entry.
TARGET UNDER TEST: PscE-PscG interaction (Pseudomonas aeruginosa, UniProt P95435+Q9I317)
Construct: made in house; host or cells: E. coli
Sequence (Q9I317 whole entry): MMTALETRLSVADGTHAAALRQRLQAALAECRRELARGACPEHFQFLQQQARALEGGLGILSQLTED
Sequence (P95435 whole entry): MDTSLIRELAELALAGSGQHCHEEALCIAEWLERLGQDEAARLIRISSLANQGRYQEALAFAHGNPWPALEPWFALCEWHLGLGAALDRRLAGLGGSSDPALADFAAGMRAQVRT
METHOD SUMMARY: ELISA test of inhibition of the PscE-PscG interaction
Type: binding
ASSAY SETUP: 4 h, read-out: PscE-PscG at 50 μM
State just the number; it will be interpreted in %.

Ask | Tell me the measured inhibition at 50 µM of CC(=O)Oc1c(-c2cn(CCCCCCCCCCCCOCCCc3ccc[n+](CCCCOCCCc4cccnc4)c3)nn2)cc(Cl)c2cccnc12 [molecule 44] , please.
Reply | 33.4

Ask | Tell me the measured inhibition at 50 µM of [N-]=[N+]=NCCCCCCCCCCOCCCc1ccc[n+](CCCCCCOCCCc2cccnc2)c1 [molecule 24] , please.
Reply | 38.6

Ask | Tell me the measured inhibition at 50 µM of CC(=O)Oc1c(-c2cn(CCCCCCCCOCCCc3ccc[n+](CCCCCCOCCCc4cccnc4)c3)nn2)cc(Cl)c2cccnc12 [molecule 41] , please.
Reply | 69.1

Ask | Tell me the measured inhibition at 50 µM of [N-]=[N+]=NCCCCCCCCCCCCOCCCc1ccc[n+](CCCCCCCCOCCCc2cccnc2)c1 [molecule 31] , please.
Reply | 82.9

Ask | Tell me the measured inhibition at 50 µM of CC(=O)Oc1c(-c2cn(CCCCOCCCc3ccc[n+](CCCCCCCCOCCCc4cccnc4)c3)nn2)cc(Cl)c2cccnc12 [molecule 38] , please.
Reply | 27.3

Ask | Tell me the measured inhibition at 50 µM of CC(=O)Oc1c(-c2cn(CCCCOCCCc3ccc[n+](CCCCOCCCc4cccnc4)c3)nn2)cc(Cl)c2cccnc12 [molecule 35] , please.
Reply | 29.8

Ask | Tell me the measured inhibition at 50 µM of [N-]=[N+]=NCCCCCCOCCCc1ccc[n+](CCCCCCCCOCCCc2cccnc2)c1 [molecule 22] , please.
Reply | 88.8

Ask | Tell me the measured inhibition at 50 µM of CC(=O)Oc1c(-c2cn(CCCCCCCCCCCCOCCCc3ccc[n+](CCCCCCCCOCCCc4cccnc4)c3)nn2)cc(Cl)c2cccnc12 [molecule 49] , please.
Reply | 69.8

Ask | Tell me the measured inhibition at 50 µM of CC(=O)Oc1c(-c2cn(CCCCCCOCCCc3ccc[n+](CCCCCCCCOCCCc4cccnc4)c3)nn2)cc(Cl)c2cccnc12 [molecule 40] , please.
Reply | 87.2

Ask | Tell me the measured inhibition at 50 µM of [N-]=[N+]=NCCCCCCCCCCOCCCc1ccc[n+](CCCCCCCCCCOCCCc2cccnc2)c1 [molecule 30] , please.
Reply | 52.8

Ask | Tell me the measured inhibition at 50 µM of CC(=O)Oc1c(-c2cn(CCCCCCOCCCc3ccc[n+](CCCCCCOCCCc4cccnc4)c3)nn2)cc(Cl)c2cccnc12 [molecule 39] , please.
Reply | 97.3

Ask | Tell me the measured inhibition at 50 µM of [N-]=[N+]=NCCCCCCCCCCCCOCCCc1ccc[n+](CCCCOCCCc2cccnc2)c1 [molecule 26] , please.
Reply | 44.2

###

Record form. Attribute: inhibition at 50 µM. Fill in for each entry.
TARGET UNDER TEST: PscE-PscG interaction (Pseudomonas aeruginosa, UniProt P95435+Q9I317)
Construct: made in house; host or cells: E. coli
METHOD SUMMARY: ELISA test of inhibition of the PscE-PscG interaction
Type: binding
ASSAY SETUP: 4 h, read-out: PscE-PscG at 50 μM
State just the number; it will be interpreted in %.

Ask | Tell me the measured inhibition at 50 µM of CC(=O)Oc1c(-c2cn(CCCCCCCCOCCCc3ccc[n+](CCCCCCCCOCCCc4cccnc4)c3)nn2)cc(Cl)c2cccnc12 [molecule 43] , please.
Reply | 29.5

Ask | Tell me the measured inhibition at 50 µM of CC(=O)Oc1c(-c2cn(CCCCCCOCCCc3ccc[n+](CCCCOCCCc4cccnc4)c3)nn2)cc(Cl)c2cccnc12 [molecule 37] , please.
Reply | 92.5

Ask | Tell me the measured inhibition at 50 µM of [N-]=[N+]=NCCCCCCOCCCc1ccc[n+](CCCCCCCCCCCCOCCCc2cccnc2)c1 [molecule 28] , please.
Reply | 37.8

Ask | Tell me the measured inhibition at 50 µM of [N-]=[N+]=NCCCCCCOCCCc1ccc[n+](CCCCOCCCc2cccnc2)c1 [molecule 19] , please.
Reply | 19.8

Ask | Tell me the measured inhibition at 50 µM of CC(=O)Oc1c(-c2cn(CCCCCCCCCCOCCCc3ccc[n+](CCCCCCCCCCOCCCc4cccnc4)c3)nn2)cc(Cl)c2cccnc12 [molecule 48] , please.
Reply | 72.3

Ask | Tell me the measured inhibition at 50 µM of CC(=O)Oc1c(-c2cn(CCCCOCCCc3ccc[n+](CCCCCCOCCCc4cccnc4)c3)nn2)cc(Cl)c2cccnc12 [molecule 36] , please.
Reply | 54.2

Ask | Tell me the measured inhibition at 50 µM of CC(=O)Oc1c(-c2cn(CCCCCCCCCCCCOCCCc3ccc[n+](CCCCCCCCCCOCCCc4cccnc4)c3)nn2)cc(Cl)c2cccnc12 [molecule 51] , please.
Reply | 28.9
